# assay-overview: HUVEC growth inhibition – cell-based, human, primary screen (AID 575);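 also: 100% = median of untreated cell wells with 0.1% DMSO on each plate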
# assay-context: HUVEC proliferation, CellTiter-Glo luminescence, 72 h; at 10 µM; hits give low values
Label key: 1.0 means viability under 90%; 0.0 means viability of 90% or more.

For orientation, consider the following solved cases.
| compound | label |
| --- | --- |
| Cc1ccc(S(=O)(=O)N(C)CC(=O)NC2CC(C)(C)NC(C)(C)C2)cc1 | 0.0 |
| CC1(C)CC(=O)C=C(NCCN2CCN(C(=O)Nc3ccccc3)CC2)C1 | 0.0 |
| CC(=O)Nc1ccc(NC(=O)c2ccccc2F)cc1 | 0.0 |
| COc1ccc(C(F)(F)F)cc1NC(=O)c1nc2nc(C)cc(C(F)F)n2n1 | 0.0 |
| CSc1cccc(NC(=O)CN(C)S(=O)(=O)c2ccccc2)c1 | 1.0 |
| Cc1cc(N2C(=O)C(O)=C(C(=O)c3ccc(C)o3)C2c2cccs2)no1 (configuration not stated) | 1.0 |
| Cc1ccc(S(=O)(=O)N(C)CC(=O)NC2CCCC2)cc1 | 0.0 |
| CCCn1c(N2CCN(CC(=O)NCc3cccs3)CC2)nc2ccccc21 | 0.0 |

Task: Does the reported viability of the following compound sit strictly below 90%? COC(=O)C1(C(=O)OC)Sc2ccccc2C1=O
Output: 1.0

Task: Does the reported viability of the following compound sit strictly below 90%? CCOC(=O)c1sc(NC(=O)CSc2nc3c(cc2C#N)CCC3)c(C#N)c1C
Output: 1.0

Task: Does the reported viability of the following compound sit strictly below 90%? Cc1cc(C)cc(Nc2ncc3c(n2)CC(c2ccco2)CC3=O)c1 (configuration not stated)
Output: 1.0

Task: Does the reported viability of the following compound sit strictly below 90%? O=C(CN1C(=O)COc2ccccc21)NCCCN1CCc2ccccc2C1
Output: 1.0

---

# assay-overview: MRP1 drug-resistance reversers in H69AR cells – cell-based, doxorubicin co-treatment, pilot screen (AID 601)
# assay-context: H69AR cells + 2 uM doxorubicin, CellTiter-Glo, 72 h; at 10 µM; hits give high values
reported-property: differential viability (reversal) (%)
Note: unit % is implicit; provide only the numeric part.

Recorded results for 5 molecules are shown here.
| molecule | numeric-value |
| --- | --- |
| COc1ccc(CN2C(=O)C(O)(CC(=O)c3c(C)n[nH]c3C)c3ccccc32)cc1OC (stereo unspecified) | 3.36 |
| CCOc1ncccc1C(=O)Nc1ccc2c(C)cc(=O)oc2c1 | 1.12 |
| COc1ccccc1CNC(=O)C1CCN(S(=O)(=O)N2CCCCC2)CC1 | 1.51 |
| CSc1ccc2c(c1)N(CCC1CCCCN1C)c1ccccc1S2 (stereo unspecified) | 0.67 |
| O=C(C1CCN(S(=O)(=O)c2ccc(-n3cnnn3)cc2)CC1)N1CCN(c2ccccc2)CC1 | 2.88 |

# context switch: different molecule, same differential viability (reversal)
Task: State, in one line, measured differential viability (reversal) of CCCn1c(N2CCN(CC(=O)NCc3cccs3)CC2)nc2ccccc21
Output: -0.505

---

Overview of reported growth inhibition across a group of molecules:
# assay-overview: S. cerevisiae growth inhibition in permissive medium (OD615), pilot counter-assay for S. cerevisiae lifespan shortening project, permissive growth control (AID 705)
# assay-context: OD615, 24 h, at 10 µM, hits give high values
Active and inactive are the calls of the source.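 The calls were made as follows: active = growth inhibition above 25% in both replicates, a cutoff set 3 SD above the mean; inconclusive = above 25% in only one replicate; inactive = the rest.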

Recorded results for 4 molecules are shown here.
| molecule | growth inhibition |
| --- | --- |
| CCCOC(=O)c1ccc(NC(=O)CCC(=O)OCC)cc1 | -2.93% (inactive) |
| Cc1c(C(=O)O)nn(-c2ccccc2)c(=O)c1C#N | -15.2% (inactive) |
| O=C1CCCN1CCCNc1ncnc2c1cnn2-c1ccc(Cl)cc1 | 0.48% (inactive) |
| Brc1ccc(Oc2nnnn2-c2ccccc2)cc1 | -5.57% (inactive) |

# context switch: different molecule, same growth inhibition
Task: State, in one line, measured growth inhibition of COc1cc(OC)c(NC(=O)CS(=O)(=O)Cc2nc(-c3ccc(C)cc3)oc2C)cc1Cl
Output: -22.6% (inactive)

Data origin: PubChem BioAssay
